Data credit: ChEMBL document CHEMBL3272231

system: Rattus norvegicus; assay: Partial agonist activity at beta adrenergic receptor in catecholamine-depleted rat assessed as change in heart rate at 2.5 mg/kg, iv; type: functional
Quick reference: Activity of the listed items.
Measure: Activity (bpm)

1. CC(=O)NCc1cc(C)ccc1OCC(O)CNC(C)C (configuration not stated) : 5
2. CC(=O)NCc1ccc(OCC(O)CNC(C)C)cc1 (configuration not stated) : 2
3. CCCc1cc(CNC(=O)CC)ccc1OCC(O)CNC(C)C (configuration not stated) : 4
4. CC(=O)NCc1ccc(OCC(O)CNC(C)C)c(Br)c1 (configuration not stated) : -17
5. CCC(=O)NCc1ccc(OCC(O)CNC(C)C)cc1 (configuration not stated) : -6
6. COc1cc(CNC(=O)C(C)C)ccc1OCC(O)CNC(C)C (configuration not stated) : -16
7. CC(=O)NCc1ccc(OCC(O)CNC(C)(C)C)cc1 (configuration not stated) : -7
8. CCCC(=O)NCc1ccc(OCC(O)CNC(C)(C)C)c(OC)c1 (configuration not stated) : -10
9. CCOc1cc(CNC(=O)CC)ccc1OCC(O)CNC(C)C (configuration not stated) : -10
10. COc1cc(CNC(C)=O)ccc1OCC(O)CNC(C)(C)C (configuration not stated) : -16
11. CCC(=O)NCc1ccc(OCC(O)CNC(C)C)c(Cl)c1 (configuration not stated) : -15
12. C=CCc1cc(CNC(=O)CC)ccc1OCC(O)CNC(C)C (configuration not stated) : -10

----------
Quick reference: inhibition (INH) of the listed items.
test system: Felis catus; assay: In vivo antagonist activity at beta-2 adrenergic receptor in cat assessed as inhibition of vasodepressor response administered as infusion for 30 mins relative to control; type: functional
Measure: inhibition (INH) (%)

1) CCCc1cc(CNC(C)=O)ccc1OCC(O)CNC(C)C (stereo unspecified) : 51
2) COc1cc(CNC(N)=O)ccc1OCC(O)CNC(C)(C)C (stereo unspecified) : 68
3) CC(=O)NCc1ccc(OCC(O)CNC(C)(C)C)c(Cl)c1 (stereo unspecified) : 30
4) CCC(=O)NCc1ccc(OCC(O)CNC(C)C)cc1 (stereo unspecified) : 16
5) CCC(=O)NCc1ccc(OCC(O)CNC(C)(C)C)c(Br)c1 (stereo unspecified) : 21
6) CNC(=O)NCCc1ccc(OCC(O)CNC(C)C)c(Br)c1 (stereo unspecified) : 97
7) C=CCc1cc(CNC(=O)CC)ccc1OCC(O)CNC(C)C (stereo unspecified) : 3
8) CCCCCCC(=O)NCc1ccc(OCC(O)CNC(C)(C)C)c(Cl)c1 (stereo unspecified) : 40
9) CCC(=O)NCc1ccc(OCC(O)CNC(C)C)c(Cl)c1 (stereo unspecified) : 83
10) CC(C)NCC(O)COc1ccc(CNC(N)=O)cc1 (stereo unspecified) : 48
11) CCOc1cc(CNC(=O)CC)ccc1OCC(O)CNC(C)(C)C (stereo unspecified) : 68
12) CNC(=O)NCc1ccc(OCC(O)CNC(C)C)c(Cl)c1 (stereo unspecified) : 21
13) CC(C)NCC(O)COc1ccc(CNC(=O)C(C)C)cc1Br (stereo unspecified) : 43
14) CCCc1cc(CNC(=O)CC)ccc1OCC(O)CNC(C)C (stereo unspecified) : 34
15) CCNC(=O)NCCc1ccc(OCC(O)CNC(C)C)cc1 (stereo unspecified) : 51
16) CCCC(=O)NCc1ccc(OCC(O)CNC(C)(C)C)c(OC)c1 (stereo unspecified) : 17
17) CC(=O)Nc1ccc(OCC(O)CNC(C)C)cc1 (stereo unspecified) [PRACTOLOL] : 8
18) CCCNC(=O)NCCc1ccc(OCC(O)CNC(C)(C)C)cc1 (stereo unspecified) : 27
19) CC(=O)NCc1ccccc1OCC(O)CNC(C)(C)C (stereo unspecified) : 63
20) COc1cc(CNC(C)=O)ccc1OCC(O)CNC(C)(C)C (stereo unspecified) : 70
21) CCC(=O)NCc1ccc(OCC(O)CNC(C)C)c(Br)c1 (stereo unspecified) : 7
22) C=CCc1cc(CNC(C)=O)ccc1OCC(O)CNC(C)C (stereo unspecified) : 61
23) CCC(=O)NCc1ccc(OCC(O)CNC(C)C)c(OC)c1 (stereo unspecified) : 37
24) CCCCCCC(=O)NCc1ccccc1OCC(O)CNC(C)C (stereo unspecified) : 19
25) COc1ccc(CCNCC(O)COc2ccc(CNC(C)=O)cc2Cl)c(OC)c1 (stereo unspecified) : 17
26) CC(C)NCC(O)COc1ccc(CNC(N)=O)cc1Br (stereo unspecified) : 25
27) CCCCNC(=O)NCCc1ccc(OCC(O)CNC(C)C)cc1 (stereo unspecified) : 0
28) COc1cc(CNC(N)=O)ccc1OCC(O)CNC(C)C (stereo unspecified) : 0
29) CCNC(=O)NCc1ccc(OCC(O)CNC(C)C)c(Cl)c1 (stereo unspecified) : 63
30) CC(C)NCC(O)COc1ccc(CCNC(N)=O)cc1 (stereo unspecified) : 47
31) CNC(=O)NCc1ccc(OCC(O)CNC(C)C)c(Br)c1 (stereo unspecified) : 0
32) CCC(=O)NCc1ccccc1OCC(O)CNC(C)C (stereo unspecified) : 0
33) CCOc1cc(CNC(=O)CC)ccc1OCC(O)CNC(C)C (stereo unspecified) : 48
34) COc1cc(CNC(=O)C(C)C)ccc1OCC(O)CNC(C)C (stereo unspecified) : 3
35) CC(=O)NCc1ccc(OCC(O)CNC(C)(C)C)cc1 (stereo unspecified) : 32
36) CCCNC(=O)NCCc1ccc(OCC(O)CNC(C)C)c(OC)c1 (stereo unspecified) : 6
37) CC(=O)NCc1cc(C)ccc1OCC(O)CNC(C)C (stereo unspecified) : 80
38) CNC(=O)NCc1ccc(OCC(O)CNC(C)C)c(OC)c1 (stereo unspecified) : 87
39) CCCNC(=O)NCCc1ccc(OCC(O)CNC(C)C)cc1 (stereo unspecified) : 19
40) CC(=O)NCc1ccc(OCC(O)CNC(C)C)cc1 (stereo unspecified) : 0
41) CC(C)NCC(O)COc1ccccc1CNC(=O)c1ccc(Cl)cc1 (stereo unspecified) : 45
42) CCC(=O)NCc1ccc(OCC(O)CNC(C)(C)C)c(OC)c1 (stereo unspecified) : 72
43) COc1cc(CNC(C)=O)ccc1OCC(O)CNC(C)C (stereo unspecified) : 5
44) CC(=O)NCc1ccc(OCC(O)CNC(C)C)c(Br)c1 (stereo unspecified) : 5
45) CCCC(=O)NCc1ccc(OCC(O)CNC(C)C)cc1 (stereo unspecified) : 51
46) CC(=O)NCc1cccc(OCC(O)CNC(C)C)c1 (stereo unspecified) : 83

----------
Quick reference: Activity of the listed items.
system: Rattus norvegicus; test: Partial agonist activity at beta adrenergic receptor in catecholamine-depleted rat assessed as change in heart rate at 2.5 mg/kg, iv; assay type: functional
Measure: Activity (bpm)

1. CC(=O)NCc1ccc(OCC(O)CNC(C)(C)C)c(Cl)c1 (configuration not stated) : -30
2. CCC(=O)NCc1ccc(OCC(O)CNC(C)(C)C)c(OC)c1 (configuration not stated) : -12
3. COc1cc(CNC(C)=O)ccc1OCC(O)CNC(C)C (configuration not stated) : -9
4. CCC(=O)NCc1ccc(OCC(O)CNC(C)C)c(OC)c1 (configuration not stated) : -19
5. CC(C)NCC(O)COc1ccc(CNC(=O)C(C)C)cc1Br (configuration not stated) : -16
6. CCC(=O)NCc1ccccc1OCC(O)CNC(C)C (configuration not stated) : 44
7. CC(C)NCC(O)COc1ccccc1CNC(=O)c1ccc(Cl)cc1 (configuration not stated) : 14
8. C=CCc1cc(CNC(C)=O)ccc1OCC(O)CNC(C)C (configuration not stated) : -16
9. CC(=O)NCc1ccccc1OCC(O)CNC(C)(C)C (configuration not stated) : 41
10. CCC(=O)NCc1ccc(OCC(O)CNC(C)(C)C)c(Br)c1 (configuration not stated) : 0
11. CCC(=O)NCc1ccc(OCC(O)CNC(C)C)c(Br)c1 (configuration not stated) : -15
12. CCCc1cc(CNC(C)=O)ccc1OCC(O)CNC(C)C (configuration not stated) : -17
